Parameter: kon. Scope: all listed entries.
target: T1, cTnI quality control product recombinant protein (human, UniProt P19429 1-210, limits assumed); test: AMC biosensor, antibody on sensor
T1 construct: the assay paragraphs only say cTnI; also called cardiac troponin I; cTnI antigen
T1 sequence (P19429 whole entry): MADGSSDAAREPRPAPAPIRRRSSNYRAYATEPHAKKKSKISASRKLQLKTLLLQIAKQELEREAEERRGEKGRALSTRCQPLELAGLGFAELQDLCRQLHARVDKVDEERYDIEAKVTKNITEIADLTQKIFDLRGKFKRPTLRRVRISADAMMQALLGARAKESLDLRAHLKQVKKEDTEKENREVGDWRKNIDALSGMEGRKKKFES
// units = M⁻¹ s⁻¹; emit number, no label

For orientation, consider the following solved cases.
• Mutation 1-43 (antibody, V domains shown) VH: QVQLQQSGTELAKPGASVKFSCKASGYTFTSYWMYWIKQRPGQGLEWIGYINPSTGHTDYNQKFKDKATLTADKSSSTAYMQLNSLTSEDSAVYYCARKYFGPFGMDYWGQGTSVTVSS VL: EIFLTQSPAIMSASPGEKVTMTCSASTSVSYVHWYQQKSGTSPKRWIYDTSKLASGIPVRFSGSGSGTSYSLTISSMEAEDAATYYCQQWSTQPYTFGGGTKLEIKR = 28600
• Mutation 1-23 (antibody, V domains shown) VH: QVQLQQSGTELAKPGASVKFSCKASGYTFTSYWMYWIKQRPGQGLEWIGYINPSTGHTDYNQRFKDKATLTADKSSSTAYMQLNSLTSEDSAVYYCARKYWGPFGMDYWGQGTSVTVSS VL: EIFLTQSPAIMSASPGEKVTMTCSASSSVSYVHWYQQKSGTSPKRWIYDTSKLASGIPVRFSGSGSGTSYSLTISSMEAEDAATYYCQQWSSNPYTFGGGTKLEIKR = 11600
• Mutation 1-12 (antibody, V domains shown) VH: QVQLQQSGTELAKPGASVKFSCKASGYTFSTYWMYWIKQRPGQGLEWIGYLNPSTGHTDYNQRFKDKATLTADKSSSTAYMQLNSLTSEDSAVYYCARRYFGPFGMDYWGQGTSVTVSS VL: EIFLTQSPAIMSASPGEKVTMTCSASTTVSYVHWYQQKSGTSPKRWLYDTSKIASGIPVRFSGSGSGTSYSLTISSMEAEDAATYYCQQWSTQPYTFGGGTKLEIKR = 20900
• Mutation 1-18 (antibody, V domains shown) VH: QVQLQQSGTELAKPGASVKFSCKASGYTFTTYWMYWIKQRPGQGLEWIGYINPSSGHTDYNQRFKDKATLTADKSSSTAYMQLNSLTSEDSAVYYCARRYFGPFGMDYWGQGTSVTVSS VL: EIFLTQSPAIMSASPGEKVTMTCSASTTVSYVHWYQQKSGTSPKRWLYDTSKLASGIPVRFSGSGSGTSYSLTISSMEAEDAATYYCQQWSSQPYTFGGGTKLEIKR = 36500

Now for a further binder.
Look up and state reported kon for Mutation 1-6 (antibody, V domains shown) VH: QVQLQQSGTELAKPGASVKFSCKASGYTFTSYWMYWIKQRPGQGLEWIGYLNPSSGHTDYNQRFKDKATLTADKSSSTAYMQLNSLTSEDSAVYYCARRYFGPFGMDYWGQGTSVTVSS VL: EIFLTQSPAIMSASPGEKVTMTCSASSTVSYVHWYQQKSGTSPKRWLYDTSKLASGIPVRFSGSGSGTSYSLTISSMEAEDAATYYCQQWSTNPYTFGGGTKLEIKR
26000
